The reported numbers originate from the supplement of paper PMC10567573.

B1: KLHDC10 (parent)
chain: FGGTGIPFGESNGNGVHVCNVKYK

# Variants of: B1
# test protocol: protein stability index of a GFP-peptide fusion (GPS, HEK-293T) (PSI 1-6); higher = more stable;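 also: lentivirally expressed fusions sorted by FACS into six bins by GFP to DsRed ratio, PSI derived from sequencing read proportions per bin multiplied by bin number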
# assay context: c terminus: a fixed tail appended
Documented protein stability index across a set of variants
Give a plain numeric answer without units written out.

Solved cases (10 shown):
G5Q	2.42
G15P	2.06
N14T	1.98
K22H	2.07
F1R	3.54
V18P	1.97
S11A	1.97
K22Q	2.89
T4I	3.13
G9V	2.57

Data request, read-out protein stability index, for "G2F"
2.72

Quick check: protein stability index of "V16N" ?
2.06

Look up protein stability index: "V16C"
1.19

I am curious: what protein stability index value has been reported for "F8T" ?
3.22

May I ask what protein stability index has been recorded for "G9H" ?
2.72

What protein stability index value was documented for this variant, "S11C" ?
1.82

Which protein stability index value belongs to "K24N" ?
1.82

Fill blank: measured protein stability index of the variant "N20Y" is ____.
2.23

What does the record list as protein stability index for "G2C" ?
2.41

Endpoint output: protein stability index of "F1H" . Value?
3.93

Reported protein stability index for "N12P" : what is it?
1.73

Can you look up the measured protein stability index of "E10C" for me?
1.51

Recorded protein stability index for "Y23W" , please?
2.62

protein stability index for "I6P" ?
1.94
